Recorded values, source patent US20180289605A1.

- Assay protocol: Dynamic Vapor Sorption (DVS) % water reduction of treated hair
- Condition: Class I materials, 1% wt/vol; hair 0% RH versus 90% RH, versus control hair
Catalogue of % Water reduction readings, one per entry.

Molecule	Unit annotation	% Water reduction
COc1cc(/C=C/C(=O)O)ccc1O [Trans-Ferulic Acid]	%	6
O=C(O)c1ccc(O)cc1O [2,4-Dihydroxybenzoic acid]	%	30
Nc1ccc(O)cc1	%	10
O=C(O)c1ccc(O)c(O)c1 [3,4-Dihydroxybenzoic acid]	%	20
O=C(O)c1cccc(O)c1 [3-Hydroxybenzoic Acid]	%	20
